targetEntity: IMP-1 (Serratia marcescens)
Sequence (P52699 19-246, looked up, species assumed): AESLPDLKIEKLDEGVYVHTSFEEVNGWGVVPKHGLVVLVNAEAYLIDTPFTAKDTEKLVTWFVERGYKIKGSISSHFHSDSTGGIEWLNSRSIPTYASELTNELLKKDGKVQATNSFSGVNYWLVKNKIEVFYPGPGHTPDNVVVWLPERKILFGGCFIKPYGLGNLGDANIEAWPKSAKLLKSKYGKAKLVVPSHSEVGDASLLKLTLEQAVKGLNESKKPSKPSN
measurementNotes: Enzymatic assay for determination of inhibition constants, reporter substrate method, purified IMP-1;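 further: purified IMP-1 (1-70 nM) hydrolysing a reporter substrate, initial rates followed as absorbance change at 260, 300 or 482 nm in 50 mM HEPES pH 7.5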
Assay type: biochemical
protocolConditions: at 200 μM (maximal tested concentration)
Form field: % inhibition IMP-1 (one value per entry).
The figure you give is taken to be in % at 200 μM; do not add the unit.

// worked examples, % inhibition IMP-1 included
compound	% inhibition IMP-1, % at 200 μM
S=c1[nH]nc(-c2ccccc2)n1CCCc1ccccc1 [Compound 8]	70
O=C(O)CCCCn1c(-c2ccc3ccccc3c2)n[nH]c1=S [Compound 30]	60
Cc1ccccc1-c1n[nH]c(=S)n1CCc1ccccc1 [Compound 6]	80
O=C(O)CCCCn1c(-c2ccccc2)n[nH]c1=S [Compound 15]	60

Next compound, % inhibition IMP-1 to be filled in.
Exercise: Identify measured % inhibition IMP-1 corresponding to S=c1[nH]nc(-c2ccccc2)n1CCc1ccc(OCc2ccccc2)cc1 [Compound 54]
Solution: 60

* * *

targetEntity: VIM-4 (Pseudomonas aeruginosa, UniProt Q8KRJ3)
measurementNotes: Enzymatic assay for determination of inhibition constants, reporter substrate method, purified VIM-4;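 further: purified VIM-4 (1-70 nM) in 50 mM HEPES pH 7.5, reporter substrate hydrolysis rate tracked by absorbance change (nitrocefin 482 nm, imipenem or meropenem 300 nm, cefotaxime 260 nm)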
Type: biochemical
protocolConditions: at 100 μM (maximal tested concentration)
property: % inhibition VIM-4
# do not omit the unit; it follows the number

molecule	reported
COc1cccc(-c2n[nH]c(=S)n2CCc2ccccc2C(=O)O)c1 [Compound 22]	80% at 100 μM
O=C(O)CCCCn1c(-c2ccc3ccccc3c2)n[nH]c1=S [Compound 30]	80% at 100 μM

Exercise: Identify measured % inhibition VIM-4 corresponding to Cc1ccccc1-c1n[nH]c(=S)n1CCc1ccccc1C(=O)O [Compound 14]
Solution: 80% at 100 μM

* * *

Form field: Ki (one value per entry).
targetEntity: VIM-2 (Escherichia coli)
measurementNotes: Enzymatic assay for determination of inhibition constants, reporter substrate method, purified VIM-2;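 further: purified VIM-2 hydrolysing a reporter substrate (imipenem, meropenem, cefotaxime or nitrocefin), reaction rate read as absorbance change, HEPES 50 mM at pH 7.5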
Type: biochemical
protocolConditions: isolated MBL, competitive inhibition model; read-out: Ki VIM-2

// worked examples, Ki included
Oc1ccc(CCn2c(-c3ccccc3-c3ccccc3)n[nH]c2=S)c(O)c1 > 100000 nM
O=C(O)c1ccccc1CCn1c(-c2ccco2)n[nH]c1=S < 1000 nM
O=C(O)CCCn1c(-c2ccc3ccccc3c2)n[nH]c1=S 1000 to 10000 nM

Exercise: Identify measured Ki corresponding to [N-]=[N+]=NCCn1c(-c2ccccc2)n[nH]c1=S
Solution: > 100000 nM

Exercise: Identify measured Ki corresponding to Cc1ccccc1-c1n[nH]c(=S)n1CCc1ccccc1C(=O)O
Solution: < 1000 nM

Exercise: Identify measured Ki corresponding to O=C(O)c1ccccc1CCn1c(-c2cccc(-c3ccccc3)c2)n[nH]c1=S
Solution: < 1000 nM

Exercise: Identify measured Ki corresponding to Fc1ccc(CSCCn2c(-c3ccccc3)n[nH]c2=S)cc1
Solution: < 1000 nM
